UniProt Q01959: reported Ki for various compounds.

Qu. Consider the compound CCCC(C(=O)c1ccccc1)N1CCCC1 (stereo not drawn) [α-PVP, α-Pyrrolidinopentiophenone] and give its measured Ki.
Ans. 17 nM

Qu. Thanks! And CCCC(C(=O)c1cccc(Cl)c1)N1CCCC1 (stereo not drawn) [3-Cl-α-PVP, 3-Chloro-α-Pyrrolidinopentiophenone] ?
Ans. 13 nM

Qu. Entry to check: CCCC(C(=O)c1cccc(Br)c1)N1CCCC1 (stereo not drawn) [3-Br-α-PVP, 3-Bromo-α-Pyrrolidinopentiophenone]
Ans. 12 nM

Qu. Next up: CCCC(C(=O)c1ccc(F)cc1)N1CCCC1 (stereo not drawn) [4-F-α-PVP, 4-Fluoro-α-Pyrrolidinopentiophenone]
Ans. 49 nM

---

A short record of Ki observed with hDAT (Homo sapiens) follows.
State the answer as a number, implicitly in nM.

Qu. GET /values?readout=Ki&system=hDAT (Homo sapiens)&item= CCCC(C(=O)c1ccc(Br)cc1)N1CCCC1 (stereo not shown)
Ans. 24

Qu. Quick one: CCCC(C(=O)c1ccc(Cl)c(Cl)c1)N1CCCC1 (stereo not shown)
Ans. 11

Qu. Input CCCC(C(=O)c1cccc(F)c1)N1CCCC1 (stereo not shown)
Ans. 14

Qu. Item: CCCC(C(=O)c1ccc(Cl)cc1)N1CCCC1 (stereo not shown)
Ans. 16

---

Give measured IC50 for each item. Keep answers brief.
tested-system: hDAT (Homo sapiens, UniProt Q01959)
Sequence (Q01959 whole entry): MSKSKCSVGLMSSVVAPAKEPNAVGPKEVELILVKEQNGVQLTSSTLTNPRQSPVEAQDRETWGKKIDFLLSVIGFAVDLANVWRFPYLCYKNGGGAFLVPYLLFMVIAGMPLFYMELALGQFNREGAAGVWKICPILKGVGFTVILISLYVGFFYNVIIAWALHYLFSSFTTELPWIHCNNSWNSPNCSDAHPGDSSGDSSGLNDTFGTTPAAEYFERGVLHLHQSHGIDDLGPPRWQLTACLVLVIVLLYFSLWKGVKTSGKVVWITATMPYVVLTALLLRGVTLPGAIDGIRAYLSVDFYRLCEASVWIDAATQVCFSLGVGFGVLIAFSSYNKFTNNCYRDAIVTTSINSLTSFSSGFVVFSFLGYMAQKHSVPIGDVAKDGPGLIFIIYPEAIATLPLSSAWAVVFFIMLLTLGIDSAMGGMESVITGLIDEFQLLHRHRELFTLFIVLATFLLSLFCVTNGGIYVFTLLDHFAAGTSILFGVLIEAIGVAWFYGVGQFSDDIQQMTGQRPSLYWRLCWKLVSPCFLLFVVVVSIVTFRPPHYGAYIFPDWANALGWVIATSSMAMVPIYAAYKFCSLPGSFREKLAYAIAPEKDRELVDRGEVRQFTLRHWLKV
assay-info: Uptake inhibition assay, [3H]MPP+ uptake in transfected HEK293 cells
Numeric only. Scale: nM

Qu. Looking for the measured IC50 of CCCC(C(=O)c1cccc(F)c1)N1CCCC1 (centres unmarked) , can you help?
Ans. 132

Qu. Would you mind doing CCCC(C(=O)c1ccc(Cl)c(Cl)c1)N1CCCC1 (centres unmarked) as well?
Ans. 266

Qu. Next entry: CCCC(C(=O)c1cccc(Br)c1)N1CCCC1 (centres unmarked)
Ans. 117

Qu. Moving on to CCCC(C(=O)c1ccccc1)N1CCCC1 (centres unmarked)
Ans. 129

Qu. Try this compound next: CCCC(C(=O)c1ccc(Br)cc1)N1CCCC1 (centres unmarked)
Ans. 156

Qu. Now this one: CCCC(C(=O)c1cccc(Cl)c1)N1CCCC1 (centres unmarked)
Ans. 349

Qu. One more compound: CCCC(C(=O)c1ccc(F)cc1)N1CCCC1 (centres unmarked)
Ans. 154

Qu. Next up: CCCC(C(=O)c1ccc(Cl)cc1)N1CCCC1 (centres unmarked)
Ans. 391
